SYSTEM_NAME: T1, factor VIIIa A1/A3C1C2 dimer, Glu1984Ala (human, UniProt P00451 20-391; P00451 1709-2351)
T1 sequence 1: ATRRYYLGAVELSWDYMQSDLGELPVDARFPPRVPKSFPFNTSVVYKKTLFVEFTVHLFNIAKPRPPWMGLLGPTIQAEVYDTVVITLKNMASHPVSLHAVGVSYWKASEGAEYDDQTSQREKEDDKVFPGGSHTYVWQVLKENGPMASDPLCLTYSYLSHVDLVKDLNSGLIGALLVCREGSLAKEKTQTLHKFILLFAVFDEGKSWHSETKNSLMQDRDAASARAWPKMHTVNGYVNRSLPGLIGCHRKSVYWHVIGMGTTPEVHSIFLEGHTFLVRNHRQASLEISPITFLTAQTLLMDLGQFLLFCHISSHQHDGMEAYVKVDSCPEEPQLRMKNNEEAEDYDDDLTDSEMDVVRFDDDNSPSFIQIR
T1 sequence 2: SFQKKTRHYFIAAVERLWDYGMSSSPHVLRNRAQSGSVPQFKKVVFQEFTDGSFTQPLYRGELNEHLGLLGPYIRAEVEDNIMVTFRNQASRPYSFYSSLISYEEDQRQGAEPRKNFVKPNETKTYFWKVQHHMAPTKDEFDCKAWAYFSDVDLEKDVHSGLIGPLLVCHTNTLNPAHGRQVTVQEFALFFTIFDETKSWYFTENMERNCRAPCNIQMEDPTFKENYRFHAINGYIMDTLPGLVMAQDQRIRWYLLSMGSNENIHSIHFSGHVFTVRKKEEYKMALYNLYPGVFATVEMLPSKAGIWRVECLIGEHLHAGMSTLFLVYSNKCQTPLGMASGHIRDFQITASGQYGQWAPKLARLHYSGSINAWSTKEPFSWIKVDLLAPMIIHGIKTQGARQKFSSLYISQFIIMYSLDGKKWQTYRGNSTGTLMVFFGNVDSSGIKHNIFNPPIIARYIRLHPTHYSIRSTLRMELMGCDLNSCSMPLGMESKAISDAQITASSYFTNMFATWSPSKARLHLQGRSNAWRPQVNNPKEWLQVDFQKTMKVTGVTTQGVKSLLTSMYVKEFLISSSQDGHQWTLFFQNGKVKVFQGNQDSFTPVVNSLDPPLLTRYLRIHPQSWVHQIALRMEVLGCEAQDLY
METHOD: cell-based or functional assay
PROPERTY: Decay rate relative to wild type, Factor VIIIa (1.5 nM, factor IXa absent)

BINDER: factor VIIIa A2 subunit, Glu665Ala (other) SVAKKHPKTWVHYIAAEEEDWDYAPLVLAPDDRSYKSQYLNNGPQRIGRKYKKVRFMAYTDETFKTREAIQHESGILGPLLYGEVGDTLLIIFKNQASRPYNIYPHGITDVRPLYSRRLPKGVKHLKDFPILPGEIFKYKWTVTVEDGPTKSDPRCLTRYYSSFVNMERDLASGLIGPLLICYKESVDQRGNQIMSDKRNVILFSVFDENRSWYLTENIQRFLPNPAGVQLEDPEFQASNIMHSINGYVFDSLQLSVCLHEVAYWYILSIGAQTDFLSVFFSGYTFKHKMVYADTLTLFPFSGETVFMSMENPGLWILGCHNSDFRNRGMTALLKVSSCDKNTGDYYEDSYEDISAYLLSKNNAIEPR
RESULT: 0.93 relative to wild type
--
BINDER: factor VIIIa A2 subunit, D519V and E665V (other) SVAKKHPKTWVHYIAAEEEDWDYAPLVLAPDDRSYKSQYLNNGPQRIGRKYKKVRFMAYTDETFKTREAIQHESGILGPLLYGEVGDTLLIIFKNQASRPYNIYPHGITDVRPLYSRRLPKGVKHLKDFPILPGEIFKYKWTVTVEVGPTKSDPRCLTRYYSSFVNMERDLASGLIGPLLICYKESVDQRGNQIMSDKRNVILFSVFDENRSWYLTENIQRFLPNPAGVQLEDPEFQASNIMHSINGYVFDSLQLSVCLHEVAYWYILSIGAQTDFLSVFFSGYTFKHKMVYVDTLTLFPFSGETVFMSMENPGLWILGCHNSDFRNRGMTALLKVSSCDKNTGDYYEDSYEDISAYLLSKNNAIEPR
RESULT: 0.1 relative to wild type
--
BINDER: factor VIIIa A2 subunit, Asp519Ala (other) SVAKKHPKTWVHYIAAEEEDWDYAPLVLAPDDRSYKSQYLNNGPQRIGRKYKKVRFMAYTDETFKTREAIQHESGILGPLLYGEVGDTLLIIFKNQASRPYNIYPHGITDVRPLYSRRLPKGVKHLKDFPILPGEIFKYKWTVTVEAGPTKSDPRCLTRYYSSFVNMERDLASGLIGPLLICYKESVDQRGNQIMSDKRNVILFSVFDENRSWYLTENIQRFLPNPAGVQLEDPEFQASNIMHSINGYVFDSLQLSVCLHEVAYWYILSIGAQTDFLSVFFSGYTFKHKMVYEDTLTLFPFSGETVFMSMENPGLWILGCHNSDFRNRGMTALLKVSSCDKNTGDYYEDSYEDISAYLLSKNNAIEPR
RESULT: 0.19 relative to wild type
--
BINDER: factor VIIIa A2 subunit, D519A and E665V (other) SVAKKHPKTWVHYIAAEEEDWDYAPLVLAPDDRSYKSQYLNNGPQRIGRKYKKVRFMAYTDETFKTREAIQHESGILGPLLYGEVGDTLLIIFKNQASRPYNIYPHGITDVRPLYSRRLPKGVKHLKDFPILPGEIFKYKWTVTVEAGPTKSDPRCLTRYYSSFVNMERDLASGLIGPLLICYKESVDQRGNQIMSDKRNVILFSVFDENRSWYLTENIQRFLPNPAGVQLEDPEFQASNIMHSINGYVFDSLQLSVCLHEVAYWYILSIGAQTDFLSVFFSGYTFKHKMVYVDTLTLFPFSGETVFMSMENPGLWILGCHNSDFRNRGMTALLKVSSCDKNTGDYYEDSYEDISAYLLSKNNAIEPR
RESULT: 0.17 relative to wild type
--
BINDER: factor VIIIa A2 subunit, Glu665Val (other) SVAKKHPKTWVHYIAAEEEDWDYAPLVLAPDDRSYKSQYLNNGPQRIGRKYKKVRFMAYTDETFKTREAIQHESGILGPLLYGEVGDTLLIIFKNQASRPYNIYPHGITDVRPLYSRRLPKGVKHLKDFPILPGEIFKYKWTVTVEDGPTKSDPRCLTRYYSSFVNMERDLASGLIGPLLICYKESVDQRGNQIMSDKRNVILFSVFDENRSWYLTENIQRFLPNPAGVQLEDPEFQASNIMHSINGYVFDSLQLSVCLHEVAYWYILSIGAQTDFLSVFFSGYTFKHKMVYVDTLTLFPFSGETVFMSMENPGLWILGCHNSDFRNRGMTALLKVSSCDKNTGDYYEDSYEDISAYLLSKNNAIEPR
RESULT: 0.26 relative to wild type
